# Tested on: Triticum aestivum (TRZAW, winter wheat)
# Test Protocol: Test 1B glasshouse assay for herbicidal activity, post-emergence
# Assay type: in vivo
# Condition Notes: 360 h, 30 g/ha application rate
Attribute Measured: plant injury at 30 g/ha (%)
Response body: numeric value in %, unit text excluded.

Returns the measured plant injury at 30 g/ha for the input compound. Input: CC#Cc1cc(Cl)c(C2C(=O)C3CCC(C3)C2=O)c(OCC)c1 (centres unmarked) [Compound A-16] 10

Returns the measured plant injury at 30 g/ha for the input compound. Input: Cc1cc(C#CCl)cc(C)c1C1C(=O)CC(CC2CCOCC2)CC1=O (centres unmarked) [Compound A-8] 50

###

# Test system: Glycine max (GLXMA, soybean)
# Test Protocol: Test 1B glasshouse assay for herbicidal activity, post-emergence
# Type: in vivo
# Condition Notes: 360 h, 60 g/ha application rate
Attribute Measured: plant injury at 60 g/ha (%)
Response body: numeric value in %, unit text excluded.

# example entries with known answers
Compound: CC#Cc1ccc(C2C(=O)C3CCC(C3)C2=O)c(C)c1 (single isomer, unassigned) [Compound A-2]
System Tested: Glycine max (GLXMA, soybean)
Quantity Unit: %
Reported Value: 40

Compound: Cc1cc(C)c(C2C(=O)C3CCC(C3)C2=O)c(C)c1 (stereo not drawn) [Compound X-9, reference compound]
System Tested: Glycine max (GLXMA, soybean)
Quantity Unit: %
Reported Value: 0

Compound: CCc1cc(C)cc(CC)c1C1C(=O)C2CCC(C2)C1=O (stereo not drawn) [Compound X-10, reference compound]
System Tested: Glycine max (GLXMA, soybean)
Quantity Unit: %
Reported Value: 0

Compound: CC#Cc1ccc(C2C(=O)C(C)(C)OC(C)(C)C2=O)c(C)c1 [Compound A-1]
System Tested: Glycine max (GLXMA, soybean)
Quantity Unit: %
Reported Value: 70

Compound: CC#Cc1cc(C)c(C2C(=O)C3CCC(C3)C2=O)c(C)c1 (stereo not drawn) [Compound A-5]
System Tested: Glycine max (GLXMA, soybean)
Quantity Unit: %
Reported Value: 20

# context switch: different compound, same plant injury at 60 g/ha
Returns the measured plant injury at 60 g/ha for the input compound. Input: Cc1cc(C#CCl)cc(C)c1C1C(=O)C2CCC(C2)C1=O (stereo not drawn) [Compound A-6] 0

###

# Lookup of reported pest or weed control at 125 g/ha keyed by entry
# Tested on: Avena fatua (AVEFA)
# Test Protocol: Test 1B glasshouse assay for herbicidal activity, post-emergence
# Format: in vivo
# Condition Notes: 360 h, 125 g/ha application rate
Response body: numeric value in %, unit text excluded.

# example entries with known answers
Molecule: CC#Cc1cc(C)c(C2=C(OC(C)=O)CC(c3ccccn3)CC2=O)c(C)c1 (stereo not drawn) [Compound A-15]
Attribute Measured: pest or weed control at 125 g/ha
Quantity Unit: %
Reported Value: 80

Molecule: CC#Cc1cc(Cl)c(C2C(=O)C3CCC(C3)C2=O)c(OCC)c1 (stereo not drawn) [Compound A-16]
Attribute Measured: pest or weed control at 125 g/ha
Quantity Unit: %
Reported Value: 60

# context switch: different molecule, same pest or weed control at 125 g/ha
Returns the measured pest or weed control at 125 g/ha for the input molecule. Input: CC#Cc1cc(Cl)c(C2C(=O)C3CCC(C3)C2=O)c(OC)c1 (stereo not drawn) [Compound A-12] 30
